compounds and their reported selectivity ratio at 72 h
# test-method-notes: Selectivity index, ratio of IC50 for rat L6 cells assessed as reduction in cell viability measured after 72 hrs by Alamar blue based inverted microscopy analysis to IC50 for Leishmania donovani MHOM-ET-67/L82 axenic amastigotes assessed as parasite growth inhibition measured after 72 hrs by Alamar blue based inverted microscopy analysis
# Assay type: toxicity
# assay-setup: L6 cells, read-out: Ratio IC50
Please give only the number in your answer, with no unit.

Example cases with answers are listed next.
The value of selectivity ratio at 72 h measured for the compound COc1ccc2c(c1OC)CO[C@@H]2[C@H]1c2c(cc3c(c2OC)OCO3)CCN1C(CN=C=S)c1ccc(C)cc1 (some centres undefined) turned out to be 1.7

Entry COc1ccc2c(c1OC)CO[C@@H]2[C@H]1c2c(cc3c(c2OC)OCO3)CCN1C(CN=C=S)c1cccnc1 (some centres undefined) ; selectivity ratio at 72 h = 8

The compound listed as `COC(=O)[C@H](Cc1ccccc1)N=C=S` shows selectivity ratio at 72 h equal to 14.4

New cases:
Record COc1ccc2c(c1OC)CO[C@@H]2[C@H]1c2c(cc3c(c2OC)OCO3)CCN1C(CN=C=S)c1ccc2c(c1)Cc1ccccc1-2 (some centres undefined) , field selectivity ratio at 72 h: 3.1

selectivity ratio at 72 h reading for O=C(Cn1ccnc1[N+](=O)[O-])NCc1ccccc1 [BENZNIDAZOLE] : 196
